# System: HLA Class I molecules
# ASSAY: HLA class I binding stability assay (pMHC-I complex dissociation, 125I-labeled β2m, scintillation counts)
# Set-up: species or system human
# RECORDED CONDITIONS: allele B07.02; 37° C.
MEASURED ATTRIBUTE: Stability (T1/2 (h))
Number only, in h; omit the unit.

For the compound CC(C)C[C@H](NC(=O)[C@H](C)NC(=O)[C@@H](NC(=O)[C@H](CCCNC(=N)N)NC(=O)[C@H](CO)NC(=O)[C@H](CC(=O)O)NC(=O)[C@H](CO)NC(=O)[C@H](CC(C)C)NC(=O)[C@@H](N)CCCCN)[C@@H](C)O)C(=O)O , what Stability (T1/2 (h)) is on record?
6.8

Check CC(C)C[C@H](N)C(=O)N1CCC[C@H]1C(=O)N[C@@H](CCCNC(=N)N)C(=O)N[C@@H](CCCCN)C(=O)N1CCC[C@H]1C(=O)N[C@H](C(=O)N[C@@H](CCCNC(=N)N)C(=O)N[C@@H](C)C(=O)N[C@@H](C)C(=O)O)[C@@H](C)O too.
5.5

Check C[C@H](NC(=O)[C@H](CO)NC(=O)[C@H](C)NC(=O)[C@@H]1CCCN1C(=O)[C@H](C)NC(=O)[C@@H]1CCCN1C(=O)[C@H](CCCNC(=N)N)NC(=O)[C@@H]1CCCN1C(=O)[C@@H](N)Cc1c[nH]cn1)C(=O)O too.
4.9

Check CSCC[C@H](NC(=O)[C@H](CC(C)C)NC(=O)[C@@H](N)CCCCN)C(=O)N[C@@H](CC(C)C)C(=O)N[C@@H](CC(C)C)C(=O)N[C@@H](CCCNC(=N)N)C(=O)N[C@@H](CC(C)C)C(=O)N[C@@H](CC(N)=O)C(=O)N[C@@H](CC(C)C)C(=O)O too.
1.5

Check CSCC[C@H](NC(=O)[C@H](Cc1c[nH]c2ccccc12)NC(=O)[C@H](Cc1c[nH]cn1)NC(=O)[C@H](CC(N)=O)NC(=O)[C@H](CCCNC(=N)N)NC(=O)[C@H](CCCNC(=N)N)NC(=O)[C@H](CCC(N)=O)NC(=O)[C@H](CO)NC(=O)[C@@H]1CCCN1C(=O)[C@@H](N)CC(C)C)C(=O)O too.
6.5

* * *

# Test system: HLA Class I molecules
# ASSAY: HLA class I binding stability assay (pMHC-I complex dissociation, 125I-labeled β2m, scintillation counts)
# Set-up: species or system human
# RECORDED CONDITIONS: allele A02.01; pMHC-I dissociation at 37° C.
For each of the compounds below, state its Stability (T1/2 (h)).
Number only, in h; omit the unit.

For the compound CSCC[C@H](NC(=O)[C@H](CC(C)C)NC(=O)[C@H](CCC(N)=O)NC(=O)[C@@H](N)CCSC)C(=O)N1CCC[C@H]1C(=O)N[C@@H](Cc1ccccc1)C(=O)NCC(=O)N[C@@H](CS)C(=O)N[C@@H](CC(C)C)C(=O)N[C@@H](CC(C)C)C(=O)O , what Stability (T1/2 (h)) is on record?
0.4

Check CC(C)C[C@H](NC(=O)[C@H](CC(C)C)NC(=O)[C@H](CC(C)C)NC(=O)CNC(=O)[C@H](Cc1ccc(O)cc1)NC(=O)[C@H](CC(C)C)NC(=O)[C@@H]1CCCN1C(=O)[C@@H](NC(=O)[C@@H](N)C(C)C)C(C)C)C(=O)O too.
0.6

Check CC(C)[C@H](NC(=O)[C@H](CO)NC(=O)[C@H](Cc1ccccc1)NC(=O)[C@H](Cc1ccccc1)NC(=O)[C@H](Cc1ccccc1)NC(=O)[C@H](Cc1ccccc1)NC(=O)[C@H](CS)NC(=O)[C@@H](NC(=O)[C@@H](N)CO)C(C)C)C(=O)O too.
9.4

Check CC[C@H](C)[C@H](NC(=O)[C@H](CC(C)C)NC(=O)[C@@H]1CCCN1C(=O)[C@H](Cc1ccccc1)NC(=O)[C@H](CC(C)C)NC(=O)[C@@H](N)CCC(=O)O)C(=O)N[C@@H](Cc1ccccc1)C(=O)N1CCC[C@H]1C(=O)N[C@@H](C)C(=O)O too.
5.1

* * *

# System: HLA Class I molecules
# ASSAY: HLA class I binding stability assay (pMHC-I complex dissociation, 125I-labeled β2m, scintillation counts)
# Set-up: species or system human
# RECORDED CONDITIONS: allele A02.01; 37° C.
MEASURED ATTRIBUTE: Stability (T1/2 (h))
Number only, in h; omit the unit.

For the compound CC(C)C[C@H](NC(=O)[C@H](CO)NC(=O)[C@H](CC(N)=O)NC(=O)[C@H](CS)NC(=O)[C@H](CCC(=O)O)NC(=O)[C@H](Cc1c[nH]cn1)NC(=O)[C@H](CC(C)C)NC(=O)[C@@H](NC(=O)[C@@H](N)CCC(N)=O)C(C)C)C(=O)O , what Stability (T1/2 (h)) is on record?
0.5

Check CC(C)C[C@H](NC(=O)[C@@H](N)CCCNC(=N)N)C(=O)N[C@@H](CO)C(=O)N[C@@H](CO)C(=O)N[C@@H](CS)C(=O)N[C@H](C(=O)N1CCC[C@H]1C(=O)N[C@H](C(=O)N[C@@H](C)C(=O)O)C(C)C)C(C)C too.
18.7

Check CSCC[C@H](NC(=O)[C@@H](NC(=O)[C@H](Cc1ccc(O)cc1)NC(=O)[C@H](C)NC(=O)[C@H](CCSC)NC(=O)[C@@H](NC(=O)[C@@H](N)Cc1ccc(O)cc1)C(C)C)C(C)C)C(=O)N[C@@H](C)C(=O)NCC(=O)O too.
2.5

Check CC[C@H](C)[C@H](NC(=O)[C@@H](NC(=O)[C@H](CC(C)C)NC(=O)[C@@H](NC(=O)[C@@H]1CCCN1C(=O)[C@H](CCCNC(=N)N)NC(=O)[C@H](CCCNC(=N)N)NC(=O)[C@H](CC(N)=O)NC(=O)[C@H](CCSC)NC(=O)[C@@H](N)CO)[C@@H](C)CC)[C@@H](C)O)C(=O)O too.
0.3

Check CSCC[C@H](NC(=O)[C@H](CC(C)C)NC(=O)[C@@H](N)CCCCN)C(=O)N[C@@H](CC(C)C)C(=O)N[C@@H](CC(C)C)C(=O)N[C@@H](CCCNC(=N)N)C(=O)N[C@@H](CC(C)C)C(=O)N[C@@H](CC(N)=O)C(=O)N[C@@H](CC(C)C)C(=O)O too.
16.9

Check CC(C)C[C@H](N)C(=O)N[C@H](C(=O)N[C@H](C(=O)N[C@H](C(=O)NCC(=O)N[C@@H](C)C(=O)N[C@H](C(=O)NCC(=O)N[C@H](C(=O)O)C(C)C)C(C)C)C(C)C)C(C)C)C(C)C too.
0.6

Check CSCC[C@H](N)C(=O)N[C@@H](C)C(=O)N[C@@H](CC(C)C)C(=O)N[C@@H](CC(N)=O)C(=O)N[C@@H](CO)C(=O)N[C@@H](CCC(=O)O)C(=O)N[C@@H](C)C(=O)N[C@@H](CC(C)C)C(=O)N[C@@H](CO)C(=O)N[C@H](C(=O)O)C(C)C too.
0.7

Check CC(C)C[C@H](NC(=O)[C@H](CO)NC(=O)[C@H](CS)NC(=O)[C@H](CCC(=O)O)NC(=O)[C@H](Cc1c[nH]c2ccccc12)NC(=O)[C@H](CC(C)C)NC(=O)[C@H](C)NC(=O)[C@H](CC(C)C)NC(=O)[C@@H](N)CC(C)C)C(=O)O too.
4

* * *

# TESTED ON: HLA class I molecule
# ASSAY: HLA class I peptide binding affinity assay (inhibition of 125I-radiolabeled probe peptide binding to purified HLA)
# Design: species or system human
# RECORDED CONDITIONS: allele A02.01; read-out: Observed Affinity (IC50; (nM))
MEASURED ATTRIBUTE: log10 IC50 (log10 of the value in nM)
In plain terms, each number is the log10 of measured IC50 in nM.

For the compound CC(C)C[C@H](NC(=O)CN)C(=O)N[C@H](C(=O)N[C@@H](CC(=O)O)C(=O)N[C@@H](CCC(=O)O)C(=O)N[C@@H](CCC(N)=O)C(=O)N[C@@H](CCC(N)=O)C(=O)N[C@@H](CCC(=O)O)C(=O)N[C@H](C(=O)O)C(C)C)C(C)C , what log10 IC50 is on record?
1.64

Check CC(C)C[C@H](NC(=O)[C@@H](NC(=O)[C@H](CC(=O)O)NC(=O)[C@H](CC(C)C)NC(=O)[C@@H](NC(=O)[C@@H](N)Cc1ccc(O)cc1)[C@@H](C)O)C(C)C)C(=O)N[C@@H](CCC(=O)O)C(=O)N[C@@H](CCCNC(=N)N)C(=O)N[C@@H](CS)C(=O)O too.
3.25

Check CC[C@H](C)[C@H](NC(=O)[C@@H]1CCCN1C(=O)[C@H](CC(C)C)NC(=O)[C@@H](N)CC(C)C)C(=O)N1CCC[C@H]1C(=O)N1CCC[C@H]1C(=O)N[C@@H](CC(C)C)C(=O)N[C@@H](CO)C(=O)N1CCC[C@H]1C(=O)N[C@@H](CO)C(=O)O too.
2.65

Check CC[C@H](C)[C@H](N)C(=O)N[C@H](C(=O)N[C@H](C(=O)N[C@@H](CCC(=O)O)C(=O)N[C@@H](Cc1ccccc1)C(=O)N[C@@H](CCSC)C(=O)N[C@H](C(=O)N[C@@H](Cc1ccc(O)cc1)C(=O)NCC(=O)N[C@@H](CC(N)=O)C(=O)O)[C@@H](C)O)[C@@H](C)CC)[C@@H](C)CC too.
3.19

Check CC(C)C[C@H](NC(=O)[C@H](CC(C)C)NC(=O)[C@H](CC(C)C)NC(=O)CNC(=O)[C@H](Cc1ccc(O)cc1)NC(=O)[C@H](CC(C)C)NC(=O)[C@@H]1CCCN1C(=O)[C@@H](NC(=O)[C@@H](N)C(C)C)C(C)C)C(=O)O too.
3.02

Check CC(C)C[C@H](NC(=O)[C@H](C)N)C(=O)N[C@@H](CC(N)=O)C(=O)N[C@@H](CO)C(=O)N[C@@H](CCC(=O)O)C(=O)N[C@@H](C)C(=O)N[C@@H](CC(C)C)C(=O)N[C@@H](CO)C(=O)N[C@H](C(=O)N[C@H](C(=O)O)C(C)C)C(C)C too.
1.18

// data source = patent US20230414735A1
